The values you see were collected from ChEMBL document CHEMBL1124666.

test system: Vaccinia virus; experiment: Minimum inhibitory concentration against vaccinia virus in Vero cell cultures of experiment 2; type: functional; conditions: Orthopoxvirus vaccinia
PROPERTY_NAME: MIC (µg/mL)
Lab book: enter the figure in µg/mL, no units written.

A selection of reference data follows.
{"columns": ["SAMPLE_SMILES", "MIC [µg/mL]"],
 "data": [
  ["Cl.Cl.Cn1cc(NC(=O)c2cc(NC(=O)Nc3cc(C(=O)Nc4cc(C(=O)NCCC(=N)N)n(C)c4)n(C)c3)cn2C)cc1C(=O)NCCC(=N)N", 20],
  ["Cl.Cl.Cn1cc(NC(=O)c2cc(NC(=O)CCCCC(=O)Nc3cc(C(=O)Nc4cc(C(=O)NCCC(=N)N)n(C)c4)n(C)c3)cn2C)cc1C(=O)NCCC(=N)N", 2]
]}

Consider the record given below.
Enquiry: Recall the reported MIC of `Cl.Cl.Cn1cc(NC(=O)c2cc(NC(=O)CC(=O)Nc3cc(C(=O)Nc4cc(C(=O)NCCC(=N)N)n(C)c4)n(C)c3)cn2C)cc1C(=O)NCCC(=N)N` on Vaccinia virus and write it down.
Return: 2
